B1: PhoQ; a variant is named by its letters at X, in order, P23837 (parent)
chain: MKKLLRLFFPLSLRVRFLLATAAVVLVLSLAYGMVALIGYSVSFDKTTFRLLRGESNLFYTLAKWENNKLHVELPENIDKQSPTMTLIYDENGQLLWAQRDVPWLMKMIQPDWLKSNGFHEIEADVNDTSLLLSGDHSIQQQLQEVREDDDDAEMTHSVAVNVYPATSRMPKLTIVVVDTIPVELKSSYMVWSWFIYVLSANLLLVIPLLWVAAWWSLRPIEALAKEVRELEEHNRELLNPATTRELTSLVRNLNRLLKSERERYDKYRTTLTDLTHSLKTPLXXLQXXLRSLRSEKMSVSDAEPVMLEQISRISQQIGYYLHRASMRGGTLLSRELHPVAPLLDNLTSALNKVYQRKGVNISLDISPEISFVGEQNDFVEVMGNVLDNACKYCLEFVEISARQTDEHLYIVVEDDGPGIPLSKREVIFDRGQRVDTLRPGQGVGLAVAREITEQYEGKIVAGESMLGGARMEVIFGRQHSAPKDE

Variants of: B1
Assay: enrichment ratio after two sorts for PhoP signalling (ratio (wild type AVST 3.29)); higher = more functional
Conditions: with PhoP (E. coli)
Over roughly 140,000 sequences, “enrichment ratio after two sorts for PhoP signalling” has its median near 0; the highest 2% begin near 11. Only a selection was taken, and the highest values are over-represented in it overall.
Property: enrichment ratio

1) KSEQ ... ≤ 0.25
2) TCCQ ... 12.5
3) ARFL ... ≤ 0.25
4) YSQW ... ≤ 0.25
5) MKCC ... ≤ 0.25
6) TAGC ... 13.9
7) LKST ... ≤ 0.25
8) KALG ... ≤ 0.25
9) VECK ... ≤ 0.25
10) ASEL ... 3.67
11) REHV ... ≤ 0.25
12) TDGC ... 17.1
13) DMCH ... ≤ 0.25
14) VMCM ... ≤ 0.25
15) ADTL ... ≤ 0.25
16) ASTL ... 20.2
17) STLG ... 14.5
18) VECQ ... 8.23
19) AQWM ... ≤ 0.25
20) NECH ... 18
21) TCKQ ... ≤ 0.25
22) AWTL ... ≤ 0.25
23) TECH ... 27.7
24) SPLG ... ≤ 0.25
25) YHGA ... ≤ 0.25
26) LTGC ... ≤ 0.25
27) KLTL ... ≤ 0.25
28) QECH ... ≤ 0.25
29) AKTL ... 12.5
30) TCCI ... 7.17
31) KKTL ... ≤ 0.25
32) TKNH ... 11.4
33) GCLG ... 14.9
34) YWCH ... ≤ 0.25
35) SALG ... 15.9
36) KAGC ... ≤ 0.25
37) TKCC ... 13.1
38) STGI ... 4.79
39) HNCC ... ≤ 0.25
40) HVSH ... ≤ 0.25
41) VRTD ... ≤ 0.25
42) KCLG ... ≤ 0.25
43) VRTL ... ≤ 0.25
44) KSGC ... ≤ 0.25
45) HRCR ... ≤ 0.25
46) KQLY ... ≤ 0.25
